Measurement protocol: chemical genetic growth profiling, strain panel (AID 1159580);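 further: tested at 20 µM; growth read once vehicle control cultures reached saturation at 30 °C; 1 = growth at the plate median or of vehicle wells; lower values mean less growth of the strain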
Condition summary: S. cerevisiae deletion strains, growth OD, locus YNL071W, strain lat1, hits give low values
The whole screen tested about 5,500 compounds, of which about 2,000 (36%) were called active. Another 18% or so got no clear call; they are omitted. Some of the results follow. Where a SMILES comes first, the peptide text is derived from it. Side-chain parts run from the residue outwards. [ ]: non-standard residue; d: D form. The star is where a group is joined. X1 = CCC(C)C(N)C1=NC(C(=O)*)CS1; Orn = NCCC[CH](N)C(=O)O
# normalized growth listing for each entry below
Result type: normalized growth

>>> measured_number("CC(=O)[C@@]1(O)CCC2C3CCC4=CC(=O)CC[C@]4(C)C3CC[C@@]21C (stereo partly specified)")
1
>>> measured_number("CCC(C)C(N)C1=NC(C(=O)NC(CC(C)C)C(=O)NC(CCC(=O)O)C(=O)NC(C(=O)NCCCCC2NC(=O)C(CC(N)=O)NC(=O)C(CC(=O)O)NC(=O)C(Cc3cnc[nH]3)NC(=O)C(Cc3ccccc3)NC(=O)C(C(C)CC)NC(=O)C(CCCN)NC2=O)C(C)CC)CS1 (stereo not drawn) (cyclo(DNK([Ile-Glu-Leu-X1])[Orn]IFH); configuration not given here)")
1
>>> measured_number("COc1cc2c(cc1OC)[C@@]13CCN4CC5=CCOC6CC(=O)N2C1[C@H]6[C@H]5C[C@H]43 (stereo partly specified)")
0.997
>>> measured_number("COc1c2occc2c(OC)c2c(=O)cc(C)oc12")
0.912
>>> measured_number("Cc1cc(=O)n(-c2ccccc2)n1C")
0.992
>>> measured_number("COc1ccc2c(=O)ccoc2c1")
1.05

###

Catalogue of normalized growth readings, one per entry.
Measurement protocol: chemical genetic growth profiling, strain panel (AID 1159580);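 further: tested at 20 µM; growth read once vehicle control cultures reached saturation at 30 °C; 1 = growth at the plate median or of vehicle wells; lower values mean less growth of the strain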
Condition summary: S. cerevisiae deletion strains, growth OD, locus YDR318W, strain mcm21, hits give low values
Hit rate of the full screen: of about 5,500 compounds, about 2,000 (36%) were called active. Not shown: some 18% with an inconclusive outcome. The list shows a part of the results.
Result type: normalized growth

>>> measured_number("CC1=CC2C(C(C)C)CCC(C)(O)C2CC1 (stereo unspecified)")
0.959
>>> measured_number("NC(N)=NC(N)=Nc1ccccc1")
0.992
>>> measured_number("COc1cnc(NS(=O)(=O)c2ccc(N)cc2)nc1")
0.986
>>> measured_number("O=C(O)c1cc(=O)c2c(Cl)cc(Cl)cc2[nH]1")
1.02
>>> measured_number("CC(=O)O[C@H]1CC[C@]2(C)C3CC[C@@]4(C)C(CC5O[C@@]6(CCC(C)CO6)[C@@H](C)C54)C3CC[C@H]2C1 (stereo partly specified)")
0.975
>>> measured_number("O=C(O)c1cc([N+](=O)[O-])ccc1NCCCc1ccccc1")
0.939
>>> measured_number("O=C(O)c1cc(=O)c2cccc(O)c2[nH]1")
0.981
>>> measured_number("CC1=CC(=O)C2=C(C)CC(O)C3C(C)C(=O)OC3C12 (stereo unspecified)")
0.994
>>> measured_number("O=C(O)[C@H](O)[C@@](O)(Cc1ccc(O)cc1)C(=O)O")
1.01
>>> measured_number("CC(=O)OCC(=O)[C@@]1(O)CCC2C3CC[C@@H]4C[C@H](OC(C)=O)CC[C@]4(C)C3C(=O)C[C@@]21C (stereo partly specified)")
1
>>> measured_number("CC(=O)[O][Hg][c]1ccccc1")
0.0644
